biological target: T1, LILRB2-ECD-HIS (SinoBiological Cat #: 14132-H02H) (human, UniProt Q8N423 22-460); experiment: SPR (Carterra LSA), antibody captured, antigen injected;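 also: kd obtained from kinetic analysis of antibody binding to the antigen, with association and dissociation phases fitted in the instrument software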
T1 construct: Bought protein; also called monomeric antigen LILRB2-ECD-HIS; not shown: His tag
T1 sequence (Q8N423 other isoform, or with tags, fused parts or gaps H02H H02H): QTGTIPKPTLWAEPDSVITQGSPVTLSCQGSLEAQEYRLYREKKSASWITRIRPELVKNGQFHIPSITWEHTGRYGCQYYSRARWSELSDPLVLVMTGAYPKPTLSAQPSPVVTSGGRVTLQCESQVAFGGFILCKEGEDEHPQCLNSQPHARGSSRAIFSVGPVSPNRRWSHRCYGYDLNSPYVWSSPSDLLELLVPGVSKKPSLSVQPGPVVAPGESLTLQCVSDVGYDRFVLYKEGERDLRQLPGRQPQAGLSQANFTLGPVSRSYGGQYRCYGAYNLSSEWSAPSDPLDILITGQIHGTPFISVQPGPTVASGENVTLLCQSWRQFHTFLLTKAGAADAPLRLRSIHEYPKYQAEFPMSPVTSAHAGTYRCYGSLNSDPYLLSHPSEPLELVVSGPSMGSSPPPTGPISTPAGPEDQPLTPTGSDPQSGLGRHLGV
Reported endpoint: Kd (pM)
Reply with just the number (in pM).

Binder	Kd / pM
#27 (antibody, human IgG1, V domains shown, also called D2M002-027) VH: EVQLQQSGAELMKPGASVKISCKITGYTFSSYWIEWVKQRPGHDLEWIGEILPGSGSTNYNEKFKGKASFTADTSSNTAYMQLNSLTSEDSAVYYCARSGAGGYDSGAFAYWGQGTLVTVSA VL: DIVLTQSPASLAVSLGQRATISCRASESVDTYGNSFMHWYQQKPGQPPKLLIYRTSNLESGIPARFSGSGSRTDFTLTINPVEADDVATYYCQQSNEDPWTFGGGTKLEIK	48.1
#16 (antibody, human IgG1, V domains shown, also called D2M002-016) VH: EVQLQQSGAELMKPGASVKISCKATGNTFSSYWIEWVKQRPGHDLEWIGEILPGSGSTNYNEKFKGKATFTADTSSNTAYMQLNSLTSEDSAVYYCARSGAGGYDSGAFAYWGQGTLVTVSA VL: DIEMTQSPASLAVSLGQRATISCRASESIDSYGNSFMHWYQQKPGQPPKLLIYRTSNLESGIPARFSGSGSRTDFTLTINPVEADDVATYYCQQSNEDPWTFGGGTKLEIK	38.5
#21 (antibody, human IgG1, V domains shown, also called D2M002-021) VH: QVQLQQSGAELMKPGASVKISCKATGSTFSSYWIEWVKQRPGHGLEWIGEILPGSGSTNYNEKFKGKATFTADTSSNTAYMQLSSLTSEDSAVYYCARSGAGGYDSGAFAYWGQGTLVTVSA VL: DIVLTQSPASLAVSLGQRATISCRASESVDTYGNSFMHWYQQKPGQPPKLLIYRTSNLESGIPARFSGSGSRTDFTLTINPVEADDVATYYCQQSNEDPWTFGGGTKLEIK	100

Here is the next item to consider.
Notebook: #40 (antibody, human IgG1, V domains shown, also called D2M002-040) VH: EVQLQQSGAELMKPGASVKISCKTTGNTFSSYWIEWVKQRPGHDLEWIGEILPGRGSTNNNEKFKGKAPFTADTSSNTAYMQLNSLTSEDSAVYYCARSGGGGYDSGAFAYWGQGTLVTVSA VL: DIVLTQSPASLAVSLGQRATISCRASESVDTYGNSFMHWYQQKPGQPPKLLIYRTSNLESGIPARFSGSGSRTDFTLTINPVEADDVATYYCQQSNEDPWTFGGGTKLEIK , Kd read as 3050
